Measured values drawn from ChEMBL document CHEMBL5030514 for this set.

- experiment.notes: Selective index, ratio of IC50 for HUVEC cells to IC50 of MCF-7 cells
- Type: toxicity
- condition.details: human, HUVEC cells versus MCF-7 cells; read-out: Selectivity Index
recorded.metric: selectivity ratio
Just the number, please.

## Input Using known records, supply selectivity ratio for CCCC/C=C/CCCCCCCCCC1(O)CC(=O)c2c(O)c(C)c(O)c(C)c2O1 (stereo unspecified)
## Output 2.64

---

- experiment.notes: Selective index, ratio of IC50 for human 293T cells to IC50 of MCF-7 cells
- Type: toxicity
- condition.details: 293T cells versus MCF-7 cells, read-out: Selectivity Index
recorded.metric: selectivity ratio

## Input Using known records, supply selectivity ratio for CCCC/C=C/CCCCCCCCCC1(O)CC(=O)c2c(O)c(C)c(O)c(C)c2O1 (stereo unspecified)
## Output 2.08

---

- experiment.notes: Selective index, ratio of IC50 for HUVEC cells to IC50 of MDA-MB-231 cells
- Format: toxicity
- condition.details: human, HUVEC cells versus MDA-MB-231 cells; read-out: Selectivity Index
recorded.metric: selectivity ratio

## Input Using known records, supply selectivity ratio for CCCC/C=C/CCCCCCCCCC1(O)CC(=O)c2c(O)c(C)c(O)c(C)c2O1 (stereo unspecified)
## Output 6.78

---

- experiment.notes: Selective index, ratio of IC50 for human 293T cells to IC50 of MDA-MB-231 cells
- Format: toxicity
- condition.details: 293T cells versus MDA-MB-231 cells, read-out: Selectivity Index
recorded.metric: selectivity ratio
Just the number, please.

## Input Using known records, supply selectivity ratio for CCCC/C=C/CCCCCCCCCC1(O)CC(=O)c2c(O)c(C)c(O)c(C)c2O1 (stereo unspecified)
## Output 5.35
